These data points were gathered from patent US12643903B2.

Molecular target: EGFR LTC (Homo sapiens, UniProt P00533, C797S/L858R/T790M)
Construct: expressed in transfected cells; host or cells: BaF3
Sequence (P00533 25-1210 T790M/C797S/L858R): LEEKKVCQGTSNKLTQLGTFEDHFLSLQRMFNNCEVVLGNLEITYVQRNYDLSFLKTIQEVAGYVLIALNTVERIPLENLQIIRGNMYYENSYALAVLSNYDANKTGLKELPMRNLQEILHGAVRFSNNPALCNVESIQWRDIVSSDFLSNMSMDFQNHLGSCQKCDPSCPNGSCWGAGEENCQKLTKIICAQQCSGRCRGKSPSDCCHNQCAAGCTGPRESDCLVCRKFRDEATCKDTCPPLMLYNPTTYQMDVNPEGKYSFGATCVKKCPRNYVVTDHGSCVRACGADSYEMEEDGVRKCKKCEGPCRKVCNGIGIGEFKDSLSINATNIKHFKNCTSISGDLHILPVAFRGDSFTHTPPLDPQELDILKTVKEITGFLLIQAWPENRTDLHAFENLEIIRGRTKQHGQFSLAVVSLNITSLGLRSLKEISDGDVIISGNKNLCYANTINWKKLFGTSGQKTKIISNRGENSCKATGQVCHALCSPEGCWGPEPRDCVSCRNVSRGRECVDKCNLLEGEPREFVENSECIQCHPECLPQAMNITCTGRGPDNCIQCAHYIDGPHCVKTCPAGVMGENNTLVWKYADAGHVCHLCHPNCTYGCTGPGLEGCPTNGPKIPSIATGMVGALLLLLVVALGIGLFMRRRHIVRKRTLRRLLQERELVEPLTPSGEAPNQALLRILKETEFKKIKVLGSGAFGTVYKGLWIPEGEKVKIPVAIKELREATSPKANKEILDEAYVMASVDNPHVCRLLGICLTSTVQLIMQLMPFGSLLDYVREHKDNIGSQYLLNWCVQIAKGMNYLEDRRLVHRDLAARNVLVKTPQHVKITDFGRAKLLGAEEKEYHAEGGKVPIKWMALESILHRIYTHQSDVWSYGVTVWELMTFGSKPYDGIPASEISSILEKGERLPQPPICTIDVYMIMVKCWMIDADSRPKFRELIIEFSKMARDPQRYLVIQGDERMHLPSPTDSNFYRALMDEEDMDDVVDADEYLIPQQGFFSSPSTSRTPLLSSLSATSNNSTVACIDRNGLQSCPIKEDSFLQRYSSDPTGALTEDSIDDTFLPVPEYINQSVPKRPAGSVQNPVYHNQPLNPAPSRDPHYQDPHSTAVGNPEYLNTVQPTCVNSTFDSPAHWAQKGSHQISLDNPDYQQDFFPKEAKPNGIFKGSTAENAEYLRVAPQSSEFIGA
Assay: Cell Degradation 3: EGFR degradation in BaF3 cells (LTC), HTRF assay
Assay type: cell-based
Details: 16 h treatment, EGFR degradation by HTRF
Method: Cell Degradation 3 Cell Treatment BaF3 cells are treated with compounds diluted in 0.2% DMSO, dilution is done according to the following protocol: (1) make 500× stock solution in DMSO from 5 mM by 4-fold dilution, total 8 doses were included; (2) make 2× solution in cell culture medium by transferring 0.5 μl 500× stock solution into 125 μl medium; (3) 30 μl of 2× solution is added to cells and incubate for 16 h. […]
endpoint.label: DC50 (nM)

Examples from the recorded data:
compound	DC50 / nM
COc1cc(N2CCN(C3CCN(CCc4ccc(C5CCC(=O)NC5=O)cc4)CC3)CC2)ccc1Nc1ncc(Cl)c(Nc2cccc3c2N(S(C)(=O)=O)CC3)n1 (stereo not drawn) [Example 38]	230
CCc1cc(Nc2ncc(Br)c(Nc3cccc4c3N(S(C)(=O)=O)CC4)n2)c(OC)cc1N1CCC(N2CCN(CCC3CCN(c4cc(F)c(C5CCC(=O)NC5=O)c(F)c4)CC3)CC2)CC1 (stereo not drawn) [Example 160]	162

a: COc1cc(N2CCC(N3CCN(CCc4ccc(C5CCC(=O)NC5=O)cc4)CC3)CC2)ccc1Nc1ncc(Cl)c(Nc2cccc3c2N(S(C)(=O)=O)CC3)n1 (stereo not drawn) [Example 34]
b: COc1cc(N2CCC(N3CCN(C[C@H]4C[C@H](N(C)c5ccc(C6CCC(=O)NC6=O)cc5)C4)CC3)CC2)c(C)cc1Nc1ncc(Br)c(Nc2cccc3c2N(S(C)(=O)=O)CC3)n1 (stereo partly drawn) [Example 176]
c: COc1cc(N2CCC(N3CCN(C[C@@H]4CCN(c5ccc6c(c5)CN(C5CCC(=O)NC5=O)C6=O)C4)CC3)CC2)c(C)cc1Nc1ncc(Br)c(Nc2cccc3c2N(S(C)(=O)=O)CC3)n1 (stereo partly drawn) [Example 154]
Please list these compounds in decreasing order of DC50. Answer format: list of labels, ordered as asked. a, b, c

----------
Molecular target: EGFR (Homo sapiens, UniProt P00533, DEL746-750)
Construct: endogenous in cells; host or cells: HCC827
Sequence (P00533 with tags, fused parts or gaps DEL746-750): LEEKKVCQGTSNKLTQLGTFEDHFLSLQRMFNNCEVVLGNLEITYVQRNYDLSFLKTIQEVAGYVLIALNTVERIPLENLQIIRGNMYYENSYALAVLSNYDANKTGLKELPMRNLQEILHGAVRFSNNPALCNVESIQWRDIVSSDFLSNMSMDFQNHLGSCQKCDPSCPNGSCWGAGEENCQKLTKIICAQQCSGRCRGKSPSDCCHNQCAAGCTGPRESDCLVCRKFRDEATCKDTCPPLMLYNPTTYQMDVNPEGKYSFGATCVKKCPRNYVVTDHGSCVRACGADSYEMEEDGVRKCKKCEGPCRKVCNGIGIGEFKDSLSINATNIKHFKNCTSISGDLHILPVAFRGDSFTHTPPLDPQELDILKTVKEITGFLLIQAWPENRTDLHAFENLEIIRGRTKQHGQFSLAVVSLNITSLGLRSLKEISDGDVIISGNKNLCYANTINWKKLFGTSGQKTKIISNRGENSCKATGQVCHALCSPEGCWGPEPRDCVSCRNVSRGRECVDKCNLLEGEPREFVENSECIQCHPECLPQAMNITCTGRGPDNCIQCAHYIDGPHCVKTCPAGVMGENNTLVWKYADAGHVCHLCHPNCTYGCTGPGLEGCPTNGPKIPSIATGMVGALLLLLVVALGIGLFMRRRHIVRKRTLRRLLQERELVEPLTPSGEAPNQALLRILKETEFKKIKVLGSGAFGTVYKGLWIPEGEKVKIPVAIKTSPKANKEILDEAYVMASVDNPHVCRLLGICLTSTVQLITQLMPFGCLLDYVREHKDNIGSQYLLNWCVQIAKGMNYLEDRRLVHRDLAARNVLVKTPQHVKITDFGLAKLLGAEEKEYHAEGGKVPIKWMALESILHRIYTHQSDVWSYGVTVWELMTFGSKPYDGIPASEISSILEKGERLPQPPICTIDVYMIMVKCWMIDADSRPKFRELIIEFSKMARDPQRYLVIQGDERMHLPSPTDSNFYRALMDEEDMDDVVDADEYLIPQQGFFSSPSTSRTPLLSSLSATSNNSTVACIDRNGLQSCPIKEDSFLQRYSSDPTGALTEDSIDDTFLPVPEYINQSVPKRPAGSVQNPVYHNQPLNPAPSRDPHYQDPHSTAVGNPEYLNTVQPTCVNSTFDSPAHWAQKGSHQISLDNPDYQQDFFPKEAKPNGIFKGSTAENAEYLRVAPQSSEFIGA
Sequence (Q96SW2 whole entry partner): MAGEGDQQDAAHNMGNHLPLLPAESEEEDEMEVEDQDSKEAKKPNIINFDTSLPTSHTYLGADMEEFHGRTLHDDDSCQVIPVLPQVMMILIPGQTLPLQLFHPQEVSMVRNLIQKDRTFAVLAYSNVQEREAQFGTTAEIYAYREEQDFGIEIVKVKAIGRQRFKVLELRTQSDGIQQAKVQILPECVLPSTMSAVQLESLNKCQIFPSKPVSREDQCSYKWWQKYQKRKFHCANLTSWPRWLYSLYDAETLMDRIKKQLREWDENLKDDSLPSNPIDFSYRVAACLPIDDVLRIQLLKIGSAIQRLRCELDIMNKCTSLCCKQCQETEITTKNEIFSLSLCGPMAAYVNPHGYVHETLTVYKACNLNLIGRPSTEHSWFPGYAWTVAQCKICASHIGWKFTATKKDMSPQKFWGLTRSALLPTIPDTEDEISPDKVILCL
Test: Cell Degradation 2: EGFR degradation in HCC827 cells, HTRF assay
Type: cell-based
Conditions: 16 h treatment, EGFR degradation by HTRF
endpoint.label: DC50 (nM)

A: CS(=O)(=O)N1CCc2cccc(Nc3nc(Nc4ccc(N5CCC(N6CCN(CCC7CCN(c8ccc(C9CCC(=O)NC9=O)cc8)CC7)CC6)CC5)c(F)c4)nc4[nH]ccc34)c21 (centres unmarked)
B: COc1cc(N2CCC(N3CCN(C[C@H]4C[C@H](c5ccc6c(c5)CN(C5CCC(=O)NC5=O)C6=O)C4)CC3)CC2)c(C)cc1Nc1ncc(Br)c(Nc2cccc3c2N(S(C)(=O)=O)CC3)n1 (some centres unmarked)
C: COc1cc(N2CCC(N3CCN(C(=O)CCN4CCN(c5ccc6c(c5)C(=O)N(C5CCC(=O)NC5=O)C6=O)CC4)CC3)CC2)c(C)cc1Nc1ncc(Br)c(Nc2cccc3c2N(S(C)(=O)=O)CC3)n1 (centres unmarked)
# ascending order, key=DC50 Answer format: the labels, in the requested order. B, C, A
(B: 2 nM, C: 4.9 nM, A: 12.7 nM)

----------
Target: EGFR (Homo sapiens, UniProt P00533, L858R/T790M)
Construct: endogenous in cells; host or cells: H1975
Sequence (P00533 25-1210 T790M/L858R): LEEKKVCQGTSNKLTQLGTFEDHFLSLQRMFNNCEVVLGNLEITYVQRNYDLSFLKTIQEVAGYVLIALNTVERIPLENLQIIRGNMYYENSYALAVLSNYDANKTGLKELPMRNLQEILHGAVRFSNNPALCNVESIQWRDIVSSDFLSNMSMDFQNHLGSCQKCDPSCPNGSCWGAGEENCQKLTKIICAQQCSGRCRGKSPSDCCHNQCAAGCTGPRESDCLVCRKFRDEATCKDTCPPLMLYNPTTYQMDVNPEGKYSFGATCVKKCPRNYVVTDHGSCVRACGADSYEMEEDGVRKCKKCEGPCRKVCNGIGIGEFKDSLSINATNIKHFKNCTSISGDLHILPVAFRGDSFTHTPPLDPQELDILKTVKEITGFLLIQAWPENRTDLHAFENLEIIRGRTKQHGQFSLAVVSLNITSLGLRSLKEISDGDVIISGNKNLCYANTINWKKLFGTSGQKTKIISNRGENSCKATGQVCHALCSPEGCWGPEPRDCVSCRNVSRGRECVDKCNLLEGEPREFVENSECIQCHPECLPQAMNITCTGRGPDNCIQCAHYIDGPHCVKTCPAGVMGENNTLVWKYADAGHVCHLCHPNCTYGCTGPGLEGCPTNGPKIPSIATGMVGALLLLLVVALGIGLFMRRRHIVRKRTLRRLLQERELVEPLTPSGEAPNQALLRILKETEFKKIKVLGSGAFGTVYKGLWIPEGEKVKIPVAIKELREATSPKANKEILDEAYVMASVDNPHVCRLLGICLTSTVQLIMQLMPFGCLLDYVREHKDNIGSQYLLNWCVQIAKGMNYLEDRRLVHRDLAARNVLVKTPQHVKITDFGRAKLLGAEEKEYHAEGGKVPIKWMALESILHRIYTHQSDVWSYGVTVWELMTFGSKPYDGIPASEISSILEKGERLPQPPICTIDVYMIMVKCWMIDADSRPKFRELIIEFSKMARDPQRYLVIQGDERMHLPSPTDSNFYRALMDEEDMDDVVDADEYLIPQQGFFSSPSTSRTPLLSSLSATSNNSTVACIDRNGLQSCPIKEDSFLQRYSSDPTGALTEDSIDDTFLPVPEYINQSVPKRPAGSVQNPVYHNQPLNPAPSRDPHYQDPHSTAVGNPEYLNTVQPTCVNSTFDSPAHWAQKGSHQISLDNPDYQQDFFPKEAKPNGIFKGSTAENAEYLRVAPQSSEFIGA
Assay: Cell Degradation 1: EGFR degradation in H1975 cells, HTRF assay
Type: cell-based
Conditions: 16 h treatment, EGFR degradation by HTRF
endpoint.label: DC50 (nM)

Look over these answered cases.
compound	study.system	obs.value
COc1cc(N2CCC(N3CCN(C[C@H]4C[C@H](c5ccc6c(c5)CN(C5CCC(=O)NC5=O)C6=O)C4)CC3)CC2)c(C)cc1Nc1ncc(Br)c(Nc2cccc3c2N(S(C)(=O)=O)CC3)n1 (some centres unmarked) [Example 159]	EGFR (Homo sapiens, UniProt P00533, L858R/T790M)	3
CS(=O)(=O)N1CCc2cccc(Nc3nc(Nc4ccc(N5CCC(N6CCN(CCc7ccc(C8CCC(=O)NC8=O)cc7)CC6)CC5)c(F)c4)ncc3Cl)c21 (centres unmarked) [Example 45]	EGFR (Homo sapiens, UniProt P00533, L858R/T790M)	2.3

a: COc1cc(N2CCC(N3CCN(CCc4cc(F)c(C5CCC(=O)NC5=O)c(F)c4)CC3)CC2)c(C)cc1Nc1nc(Nc2cccc3c2N(S(C)(=O)=O)CC3)c2cc[nH]c2n1 (centres unmarked) [Example 163]
b: CS(=O)(=O)N1CCc2cccc(Nc3nc(Nc4ccc(N5CCC(N6CCN(C(=O)C7CCN(CC8CCN(c9ccc%10c(c9)C(=O)N(C9CCC(=O)NC9=O)C%10=O)CC8)CC7)CC6)CC5)c(F)c4)nc4[nH]ccc34)c21 (centres unmarked) [Example 14]
Please indicate which item has the smaller measured DC50: a versus b Pick one; state its label. a
(a: 3 nM, b: 27.1 nM)
